target.system: Cytochrome P450 2D6 (Homo sapiens, UniProt P10635)
Sequence (P10635 whole entry): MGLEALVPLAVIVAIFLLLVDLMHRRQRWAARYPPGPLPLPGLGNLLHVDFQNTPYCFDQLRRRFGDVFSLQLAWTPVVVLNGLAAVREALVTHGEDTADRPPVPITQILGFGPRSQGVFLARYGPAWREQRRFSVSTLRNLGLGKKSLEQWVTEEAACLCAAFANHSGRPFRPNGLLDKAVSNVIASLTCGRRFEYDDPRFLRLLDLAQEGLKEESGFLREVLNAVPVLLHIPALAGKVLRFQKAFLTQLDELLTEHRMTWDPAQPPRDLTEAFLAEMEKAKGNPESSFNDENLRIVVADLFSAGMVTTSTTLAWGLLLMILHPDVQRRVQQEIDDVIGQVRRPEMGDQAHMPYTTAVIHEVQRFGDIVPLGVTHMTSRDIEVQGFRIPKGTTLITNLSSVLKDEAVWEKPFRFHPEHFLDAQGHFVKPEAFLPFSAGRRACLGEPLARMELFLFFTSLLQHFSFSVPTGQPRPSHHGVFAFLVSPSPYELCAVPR
test.readout: IC50 (µM)
Give bare numbers, in µM.

GET /values?readout=IC50&item= `CN1CC=C(c2c[nH]c3cc(NC(=N)c4cccs4)ccc23)CC1.Cl.Cl` 63.2

====

target.system: Cytochrome P450 3A4 (Homo sapiens, UniProt P08684)
Sequence (P08684 whole entry): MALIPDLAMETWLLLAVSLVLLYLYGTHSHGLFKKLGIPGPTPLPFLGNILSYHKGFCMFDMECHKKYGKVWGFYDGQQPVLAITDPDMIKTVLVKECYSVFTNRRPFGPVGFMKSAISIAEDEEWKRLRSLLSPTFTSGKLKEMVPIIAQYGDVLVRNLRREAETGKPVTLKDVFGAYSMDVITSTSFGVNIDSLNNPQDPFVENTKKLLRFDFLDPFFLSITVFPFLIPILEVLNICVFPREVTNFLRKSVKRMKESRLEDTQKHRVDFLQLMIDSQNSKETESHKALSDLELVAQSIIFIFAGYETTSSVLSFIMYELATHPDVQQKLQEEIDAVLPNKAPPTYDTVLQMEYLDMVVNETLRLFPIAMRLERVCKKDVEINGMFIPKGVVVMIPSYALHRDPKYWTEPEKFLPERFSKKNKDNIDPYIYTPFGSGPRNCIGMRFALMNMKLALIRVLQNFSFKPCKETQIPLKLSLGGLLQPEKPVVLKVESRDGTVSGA
method.description: Inhibition of CYP3A4 using BFC as substrate
Assay type: ADME
For each entry below, report its pIC50 value.
Answers are plain numbers, as −log10 of the molar value.

>  <compound>
Cl.Cl.N=C(Nc1ccc2c(C3CN4CCC3CC4)c[nH]c2c1)c1cccs1 (single isomer, unassigned; enantiomer 2)

>  <pIC50>
4.00

$$$$

Then there is this compound:
GET /values?readout=pIC50&item= `CN1CC=C(c2c[nH]c3cc(NC(=N)c4cccs4)ccc23)CC1.Cl.Cl` 4.13

====

target.system: Nitric oxide synthase 3 (Homo sapiens, UniProt P29474)
Sequence (P29474 whole entry): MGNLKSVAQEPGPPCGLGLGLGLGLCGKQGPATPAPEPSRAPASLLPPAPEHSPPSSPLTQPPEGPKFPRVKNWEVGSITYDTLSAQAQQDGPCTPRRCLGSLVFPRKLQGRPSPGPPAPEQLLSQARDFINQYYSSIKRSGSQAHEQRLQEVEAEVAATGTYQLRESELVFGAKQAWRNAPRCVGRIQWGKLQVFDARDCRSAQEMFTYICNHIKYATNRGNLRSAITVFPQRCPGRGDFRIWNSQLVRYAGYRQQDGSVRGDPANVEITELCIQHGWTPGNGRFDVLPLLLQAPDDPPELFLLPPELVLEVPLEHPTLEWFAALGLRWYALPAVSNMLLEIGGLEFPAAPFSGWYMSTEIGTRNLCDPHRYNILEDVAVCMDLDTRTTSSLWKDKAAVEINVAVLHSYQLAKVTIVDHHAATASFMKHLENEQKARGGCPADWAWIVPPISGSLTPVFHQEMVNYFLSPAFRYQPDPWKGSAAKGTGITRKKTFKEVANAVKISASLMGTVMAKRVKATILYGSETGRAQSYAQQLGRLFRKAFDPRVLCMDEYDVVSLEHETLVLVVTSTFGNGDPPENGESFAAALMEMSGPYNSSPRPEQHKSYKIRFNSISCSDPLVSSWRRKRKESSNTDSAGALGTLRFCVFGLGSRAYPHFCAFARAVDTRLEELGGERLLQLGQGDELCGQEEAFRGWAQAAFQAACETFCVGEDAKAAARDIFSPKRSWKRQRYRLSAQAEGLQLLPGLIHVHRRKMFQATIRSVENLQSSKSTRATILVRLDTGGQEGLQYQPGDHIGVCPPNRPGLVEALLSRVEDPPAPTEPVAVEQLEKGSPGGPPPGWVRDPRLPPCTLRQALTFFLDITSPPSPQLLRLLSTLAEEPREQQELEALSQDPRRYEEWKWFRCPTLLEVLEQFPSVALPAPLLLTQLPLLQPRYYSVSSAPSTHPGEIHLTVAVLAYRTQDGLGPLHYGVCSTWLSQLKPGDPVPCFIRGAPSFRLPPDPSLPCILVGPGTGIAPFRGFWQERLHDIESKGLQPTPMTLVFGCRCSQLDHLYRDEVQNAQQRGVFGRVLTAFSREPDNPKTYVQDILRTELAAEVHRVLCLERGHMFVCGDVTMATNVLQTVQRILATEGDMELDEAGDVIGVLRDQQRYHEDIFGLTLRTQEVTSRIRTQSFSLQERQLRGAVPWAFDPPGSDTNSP
method.description: Inhibition of human recombinant eNOS expressed in Sf9 cells assessed as inhibition of conversion of [3H]-L-arginine to [3H]-L-citrulline after 45 mins by liquid scintillation counting
test.readout: log10 of IC50 (log10 of the value in µM)
Reminder: these figures are log10 of reported IC50, in µM before transformation.

// solved cases for log10 of IC50 follow
>  <molecule>
N=C(Nc1ccc2c(C3CN4CCC3CC4)c[nH]c2c1)c1cccs1 (single isomer, unassigned; enantiomer 1)

>  <test.readout>
log10 of IC50

>  <test.value>
1.37

$$$$
>  <molecule>
N=C(Nc1ccc2c(C3CN4CCC3CC4)c[nH]c2c1)c1cccs1 (racemic)

>  <test.readout>
log10 of IC50

>  <test.value>
1.52

$$$$
>  <molecule>
COC(=O)[C@@H](N)CCCNC(=N)N[N+](=O)[O-]

>  <test.readout>
log10 of IC50

>  <test.value>
-0.17

$$$$
>  <molecule>
CN1CCC(c2c[nH]c3cc(NC(=N)c4cccs4)ccc23)CC1

>  <test.readout>
log10 of IC50

>  <test.value>
1.03

$$$$

Parameters: items (list). Returns: log10 of IC50 for each item.
1. Cl.Cl.N=C(Nc1ccc2c(C3CN4CCC3CC4)c[nH]c2c1)c1cccs1 (single isomer, unassigned; enantiomer 2)
2. CN1CC=C(c2c[nH]c3cc(NC(=N)c4cccs4)ccc23)CC1.Cl.Cl

1.61
1.42

Entry source: ChEMBL document CHEMBL1833804
